Value source: patent US20150252427A1

Tested Target: T1, H-2 K^d molecules purified by affinity chromatography (human, UniProt P61769 21-119; P01902 22-305)
T1 construct: MHC class I molecule, 1-10 nM in the assay, with added human beta-2 microglobulin; also called purified MHC molecules
Assay Method Text: radiolabeled peptide inhibition assay, purified H-2 K^d
Quantity Name: IC50 (nM)

Reference set, count: 5
YYVPLLKRVPS [Alms1.2 WT peptide] ... 1480
CYAKLKEQL (WT of CYAK(v/L)KEQL) [Ssx2ip WT peptide] ... 3.2
HYLSAILRL (WT of HYLS(s/A)ILRL) [Pacs2 WT peptide] ... 1270
HYINMILPI (Mut of HYINM(i/S)LPI; Meth A) [Ufsp2 Mut peptide] ... 0.23
TYIRPFETKV (Mut of TYIRP(f/L)ETKV; Meth A) [Ccdc85c Mut peptide] ... 6160

(1) AYCETCWEL (Meth A) [Apc Mut peptide]
(2) HYLSSILRL (Mut of HYLS(s/A)ILRL; Meth A) [Pacs2 Mut peptide]
Recorded IC50 values differ for 1 and 2 ; which one is higher? To answer, give the label that identifies your chosen option.
2

(A) NYLLSLVAVVL [Serinc1 WT peptide]
(B) YYVPLLKRVPL (Meth A) [Alms1.2 Mut peptide]
(C) AYCETCWEW [Apc WT peptide]
Order the records by IC50, with each subsequent value no larger than the one before. The labels, placed in the requested order, form the answer.
A, B, C
(A: 20900 nM, B: 421 nM, C: 60 nM)

(A) NYLLSLVAVML (CMS5) [Serinc1 Mut peptide]
(B) CYAKVKEQL (Mut of CYAK(v/L)KEQL; CMS5) [Ssx2ip Mut peptide]
API: POST /compare with A and B ; response names the item with higher IC50. To answer, give the label that identifies your chosen option.
A
